Target: T1, ZFP SBS#269 (synthetic)
T1 chain: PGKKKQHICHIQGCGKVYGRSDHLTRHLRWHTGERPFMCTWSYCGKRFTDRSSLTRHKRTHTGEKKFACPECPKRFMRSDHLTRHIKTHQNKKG
Assay: EMSA
Conditions: tags: MBP fusion

BINDER	MEASUREMENT_UNITS	Kd
GGGGCCGGG (dsDNA) DNA 1: GGGGCCGGG DNA 2: CCCGGCCCC	nM	5
